assay-context: siRNA; note: test system not given here
HELM strings list units from the 5' end as sugar, base in round brackets, then linkage (d deoxyribose, r ribose, m 2'-O-methyl, p phosphodiester). Strings are as the collection lists them, not checked against the first reports. ss, as = sense and antisense strand; [fl2r] = 2'-fluoro
Measured target mRNA knockdown, listed per entry for reference.

>  <substance>
RNA1{r(A)p.r(A)p.m(C)p.r(U)p.m(C)p.r(U)p.r(A)p.m(C)p.r(U)p.r(G)p.r(U)p.r(G)p.r(G)p.r(A)p.r(G)p.r(U)p.m(C)p.r(G)p.r(G)p.r(T)p.r(T)}|RNA2{m(C)p.m(C)p.r(G)p.r(A)p.m(C)p.r(U)p.m(C)p.m(C)p.r(A)p.m(C)p.r(A)p.r(G)p.r(U)p.r(A)p.r(G)p.r(A)p.r(G)p.r(U)p.r(U)p.r(T)p.r(T)}$$$RNA1{StrandType:ss}|RNA2{StrandType:as}$

>  <measure-unit>
%

>  <target mRNA knockdown>
57

$$$$
>  <substance>
RNA1{r(U)p.r(G)p.r(A)p.r(A)p.r(C)p.r(G)p.r(U)p.m(C)p.r(A)p.r(C)p.r(C)p.r(G)p.r(A)p.r(G)p.r(G)p.r(A)p.r(G)p.r(A)p.r(A)p.r(T)p.r(T)}|RNA2{r(U)p.r(U)p.r(C)p.r(U)p.r(C)p.r(C)p.r(U)p.r(C)p.r(G)p.r(G)p.r(U)p.r(G)p.r(A)p.r(C)p.r(G)p.r(U)p.r(U)p.m(C)p.r(A)p.r(T)p.r(T)}$$$RNA1{StrandType:ss}|RNA2{StrandType:as}$

>  <measure-unit>
%

>  <target mRNA knockdown>
85

$$$$
>  <substance>
RNA1{m(C)p.r(C)p.m(U)p.r(C)p.m(C)p.r(C)p.m(C)p.r(A)p.m(U)p.r(C)p.m(C)p.r(C)p.m(C)p.r(U)p.m(U)p.r(U)p.m(U)p.r(A)p.m(A)p.r(T)p.r(T)}|RNA2{r(U)p.r(U)p.r(A)p.r(A)p.r(A)p.r(A)p.r(G)p.r(G)p.r(G)p.r(G)p.r(A)p.r(U)p.m(G)p.r(G)p.m(G)p.r(G)p.m(A)p.r(G)p.m(G)p.r(T)p.r(T)}$$$RNA1{StrandType:ss}|RNA2{StrandType:as}$

>  <measure-unit>
%

>  <target mRNA knockdown>
48

$$$$
>  <substance>
RNA1{r(A)p.r(A)p.m(U)p.r(A)p.r(A)p.r(G)p.r(C)p.r(A)p.r(G)p.r(C)p.r(U)p.r(C)p.r(G)p.r(C)p.r(G)p.r(C)p.r(U)p.r(C)p.r(C)p.r(T)p.r(T)}|RNA2{r(G)p.r(G)p.r(A)p.r(G)p.r(C)p.r(G)p.r(C)p.r(G)p.r(A)p.r(G)p.r(C)p.r(U)p.r(G)p.r(C)p.r(U)p.m(U)p.r(A)p.r(U)p.r(U)p.r(T)p.r(T)}$$$RNA1{StrandType:ss}|RNA2{StrandType:as}$

>  <measure-unit>
%

>  <target mRNA knockdown>
69

$$$$
>  <substance>
RNA1{r(C)p.[fl2r](U)p.r(G)p.r(A)p.r(C)p.r(C)p.r(G)p.r(G)p.r(A)p.r(A)p.[fl2r](G)p.r(C)p.r(G)p.r(C)p.r(U)p.[fl2r](U)p.r(A)p.r(A)p.r(A)p.r(T)p.r(T)}|RNA2{r(U)p.r(U)p.[fl2r](U)p.r(A)p.r(A)p.r(G)p.r(C)p.r(G)p.r(C)p.r(U)p.r(U)p.r(C)p.r(C)p.r(G)p.r(G)p.r(U)p.[fl2r](C)p.r(A)p.r(G)p.r(T)p.r(T)}$$$RNA1{StrandType:ss}|RNA2{StrandType:as}$

>  <measure-unit>
%

>  <target mRNA knockdown>
85

$$$$
